FYI, the data here is from ChEMBL document CHEMBL2040712.

target-under-test: Polyunsaturated fatty acid 5-lipoxygenase (Homo sapiens) (UniProt P09917)
Sequence (whole entry): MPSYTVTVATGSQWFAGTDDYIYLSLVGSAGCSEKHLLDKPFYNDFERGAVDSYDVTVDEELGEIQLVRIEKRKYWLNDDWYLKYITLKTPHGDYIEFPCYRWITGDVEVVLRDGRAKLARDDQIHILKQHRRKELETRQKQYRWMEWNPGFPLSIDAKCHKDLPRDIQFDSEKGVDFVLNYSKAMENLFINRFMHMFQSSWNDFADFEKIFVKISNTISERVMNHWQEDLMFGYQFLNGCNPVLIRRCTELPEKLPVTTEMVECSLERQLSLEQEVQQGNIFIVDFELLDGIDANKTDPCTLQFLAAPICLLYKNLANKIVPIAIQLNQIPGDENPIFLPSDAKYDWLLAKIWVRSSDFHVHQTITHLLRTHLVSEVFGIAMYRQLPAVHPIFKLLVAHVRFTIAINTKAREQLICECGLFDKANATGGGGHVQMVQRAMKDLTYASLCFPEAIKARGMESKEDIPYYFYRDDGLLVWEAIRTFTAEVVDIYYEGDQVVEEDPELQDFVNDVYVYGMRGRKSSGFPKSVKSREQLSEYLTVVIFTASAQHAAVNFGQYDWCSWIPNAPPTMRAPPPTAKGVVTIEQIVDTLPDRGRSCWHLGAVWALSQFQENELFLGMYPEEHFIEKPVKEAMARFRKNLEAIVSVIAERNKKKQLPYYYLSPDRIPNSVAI
assay-summary: Inhibition of human recombinant 5-lipoxygenase in cell-free system assessed as remaining activity at 10 uM preincubated for 10 mins before substrate arachidonic acid addition measured after 10 mins by RP-HPLC method
readout-kind: Activity

// below: answered compounds
COc1cc(-c2ccc(-c3cn(Cc4ccc(C(=O)O)cc4[N+](=O)[O-])nn3)cc2)cc(OC)c1OC; 64.3%
O=C(O)c1cccc(-c2ccc(-c3cn(Cc4ccc(C(=O)O)cc4[N+](=O)[O-])nn3)cc2)c1; 74.7%
COc1ccc(-c2ccc(-c3cn(Cc4ccc(C(=O)O)cc4[N+](=O)[O-])nn3)cc2)cc1CN1CCOCC1; 84.9%
O=C(O)c1ccc(Cn2cc(-c3ccc(-c4cccc(O)c4)cc3)nn2)c([N+](=O)[O-])c1; 80.2%
O=C(O)c1ccc(Cn2cc(-c3ccc(-c4cccs4)cc3)nn2)c([N+](=O)[O-])c1; 52.2%
O=C(O)c1ccc(Cn2cc(-c3ccc(-c4cccc(C(=O)N5CCOCC5)c4)cc3)nn2)c([N+](=O)[O-])c1; 62.7%

compound O=C(O)c1ccc(Cn2cc(-c3ccc(-c4ccccc4C(=O)O)cc3)nn2)c([N+](=O)[O-])c1 , Activity observed: 75.3%

Briefly, Activity measured for Nc1ccc(-c2ccc(-c3cn(Cc4ccc(C(=O)O)cc4[N+](=O)[O-])nn3)cc2)cc1 : 63.5%
